Recorded inhibition by entry
- test system: Solute carrier family 2, facilitated glucose transporter member 1 (Homo sapiens)
- assay summary: ST_JUDE_LEISH: Cytotoxicity at 2uM final concentration against transgenic Leishmania Mexicana promastigotes LmGLUT1 that are glucose transport deficient and complemented with the human glucose transporter GLUT1. Activity is measured by DNA content using SYBR green in vitro
- Format: functional
Express your answer in %, writing the number without its unit.

[ask] I am curious: what inhibition value has been reported for O=C(NC1CCC(CN2CCC(c3c[nH]c4ccccc34)CC2)CC1)c1ccc(-c2cc(C(F)(F)F)ccc2Cl)o1 (centres undefined) ?
[reply] 4

[ask] Quick one: inhibition for CC[C@H]1CN2CC[C@H]1C[C@H]2[C@H](O)c1cc(-c2ccc(Cl)c(Cl)c2)nc2ccc(OC)cc12 ?
[reply] 12.6

[ask] What inhibition value was documented for this compound, CCCCCCCSc1ccc(CC(C)NCC(O)c2cccc(Cl)c2)cc1 (centres undefined) ?
[reply] 4.14

[ask] Query: inhibition; subject: O=C(CCc1ccco1)NC1CCN(CC2(c3ccc(Cl)cc3)CCC2)CC1
[reply] 9.68

[ask] I am curious: what inhibition value has been reported for CC1(CCCCN2CC=C(c3c[nH]c4ccccc34)CC2)C(=O)Nc2ccccc21 (centres undefined) ?
[reply] 0.6

[ask] Could you tell me which inhibition is on file for COC(=O)c1ccc(C[C@@H](C)NC[C@H](O)c2cccc(C(F)(F)F)c2)cc1 ?
[reply] 3.2

[ask] Quick check: inhibition of CCC(C)CN1CCC(N(C)c2cc(NC(=O)c3cccc(C)c3)ccn2)CC1 (centres undefined) ?
[reply] -1.69

[ask] Name the recorded inhibition for O=C(NC1CCC(CN2CCC(c3c[nH]c4ccccc34)CC2)CC1)[C@H]1Cc2ccccc2CN1 (some centres undefined) .
[reply] 1.47

[ask] What value of inhibition has been recorded for this entry: CN1CC=C(c2c[nH]c3ccc(-c4ccccc4)cc23)CC1
[reply] 7.91

[ask] Quick one: inhibition of COc1cc(CN2CCN(c3ccnc(N(C)C4CCN(C)CC4)n3)CC2)cc(Cl)c1O ?
[reply] 5.87

[ask] Recorded inhibition for Cc1ccc(CC(C)NCC(O)c2cccc(C(F)(F)F)c2)c(C)c1 (centres undefined) , please?
[reply] 1.64

[ask] Please report the recorded inhibition for O=C(/C=C/c1ccc(Cl)c(Cl)c1)N1CCC(CN2CCC(c3c(Br)[nH]c4ccccc34)CC2)CC1 .
[reply] 2.44

[ask] Which value of inhibition has been reported for Cc1cccc(N2CCN(Cc3cc(Cl)ccc3O)CC2)c1C in the records?
[reply] 0.93

[ask] Request the reported inhibition associated with CC[C@H]1CN2CC[C@@H]1C[C@H]2[C@H](O)c1cc(-c2ccc(F)cc2)nc2ccc(O)cc12
[reply] -0.76

[ask] Param item = Cc1[nH]c2ccccc2c1C1=CCN(CCCCC2(C)C(=O)Nc3cccc(F)c32)CC1 (centres undefined) ; retrieve measured inhibition.
[reply] 0.46

[ask] Given FC(F)(F)c1ccc(NC(=S)N2CCC(CN3CCC(c4c[nH]c5ccccc45)CC3)CC2)cc1 , state its recorded inhibition.
[reply] -0.87

[ask] Entry under review: CC(=O)N(Cc1ccccc1-c1ccc(CNCCc2ccccc2)cc1)C1CCN(Cc2ccccc2)CC1 . Reported inhibition?
[reply] 2.55

[ask] I have this compound here, O=C1Nc2cccc3c2C1(CCCCN1CC=C(c2c[nH]c4ncccc24)CC1)CCC3 (centres undefined) , and I need its recorded inhibition.
[reply] 5.83

[ask] Requested field: inhibition. Item: COc1cccc(C(=O)C2CC2CN2CC=C(c3c(C)[nH]c4ccccc34)CC2)c1 (centres undefined)
[reply] 1.94
